Target: Sodium-dependent serotonin transporter (Rattus norvegicus) (UniProt P31652)
Sequence (P31652 whole entry): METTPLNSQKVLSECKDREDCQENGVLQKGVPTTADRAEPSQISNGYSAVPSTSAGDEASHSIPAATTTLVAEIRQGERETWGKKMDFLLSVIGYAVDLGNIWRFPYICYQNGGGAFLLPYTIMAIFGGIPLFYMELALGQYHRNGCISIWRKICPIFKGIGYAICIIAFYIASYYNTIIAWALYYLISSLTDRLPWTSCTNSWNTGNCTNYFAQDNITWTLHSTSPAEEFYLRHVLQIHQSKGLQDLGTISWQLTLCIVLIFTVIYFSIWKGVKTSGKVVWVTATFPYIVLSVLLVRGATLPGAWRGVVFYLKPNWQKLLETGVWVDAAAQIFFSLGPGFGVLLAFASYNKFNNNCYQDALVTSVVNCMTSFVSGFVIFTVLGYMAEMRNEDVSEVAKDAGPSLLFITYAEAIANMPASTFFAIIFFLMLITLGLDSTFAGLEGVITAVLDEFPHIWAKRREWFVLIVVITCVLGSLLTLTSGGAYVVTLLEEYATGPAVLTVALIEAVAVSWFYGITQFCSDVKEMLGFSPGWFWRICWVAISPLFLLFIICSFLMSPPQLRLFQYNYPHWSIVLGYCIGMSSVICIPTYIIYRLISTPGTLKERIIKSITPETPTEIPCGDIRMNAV
Assay: Specific binding of [18F]AFA in rat hippocampus after GBR-12935 treatment; n=3
Type: functional, tissue-based
Conditions: tested as the 18F-labelled form
quantity.name: Specific binding (%ID/g)
Supply the numeric figure in %ID/g, leaving out any unit text.

Suppose we examine the molecule CN(C)Cc1ccccc1Sc1ccc(CF)cc1N ; what Specific binding value has been reported?
3.51

Suppose we examine the molecule CN(C)Cc1ccccc1Sc1ccc(F)cc1N ; what Specific binding value has been reported?
2.21

I would be grateful if you could share the reported Specific binding for CN(C)Cc1ccccc1Sc1ccc(CCF)cc1N .
2.18

Which Specific binding value belongs to CN(C)Cc1ccccc1Sc1ccc(CCCF)cc1N ?
0.77

* * *

Molecular target: Sodium-dependent serotonin transporter (Rattus norvegicus)
Assay: Specific binding of [18F]AFA in rat thalamus after GBR-12935 treatment; n=3
Format: functional, tissue-based
Conditions: tested as the 18F-labelled form
quantity.name: Specific binding (%ID/g)
Lab book: enter the figure in %ID/g, no units written.

Guide cases for Specific binding, answers given:
CN(C)Cc1ccccc1Sc1ccc(CF)cc1N ... 4.38
CN(C)Cc1ccccc1Sc1ccc(CCCF)cc1N ... 0.98
CN(C)Cc1ccccc1Sc1ccc(F)cc1N ... 4.57

Next compound, please.
Suppose we examine the compound CN(C)Cc1ccccc1Sc1ccc(CCF)cc1N ; what Specific binding value has been reported?
3.38

* * *

Species: Rattus norvegicus
Assay: Regional uptake of [18F]AFA in cerebellum of rat pretreated with compound GBR-12935; n=3
Assay type: functional, organism-based
Details: tested as the 18F-labelled form
quantity.name: Uptake (%ID/g)
Give the value, in units of %ID/g, as a plain number.

// solved cases for Uptake follow
CN(C)Cc1ccccc1Sc1ccc(CCCF)cc1N ... 0.09
CN(C)Cc1ccccc1Sc1ccc(CCF)cc1N ... 0.06
CN(C)Cc1ccccc1Sc1ccc(F)cc1N ... 0.09

Name the recorded Uptake for CN(C)Cc1ccccc1Sc1ccc(CF)cc1N .
0.13

* * *

Molecular target: Sodium-dependent serotonin transporter (Rattus norvegicus)
Assay: Specific binding of [18F]AFA in rat hypothalamus after GBR-12935 treatment; n=3
Format: functional, tissue-based
Conditions: tested as the 18F-labelled form
quantity.name: Specific binding (%ID/g)
Answer with a number only, understood to be in %ID/g.

CN(C)Cc1ccccc1Sc1ccc(CCF)cc1N ... 3.85

Quick check: Specific binding of CN(C)Cc1ccccc1Sc1ccc(F)cc1N ?
4.3

Name the recorded Specific binding for CN(C)Cc1ccccc1Sc1ccc(CF)cc1N .
5.3

Fill blank: measured Specific binding of the compound CN(C)Cc1ccccc1Sc1ccc(CCCF)cc1N is ____.
0.87

* * *

Measured Specific binding by item
Molecular target: Sodium-dependent serotonin transporter (Rattus norvegicus)
Test: Specific binding of [18F]AFA in rat frontal cortex after citalopram treatment; n=3
Type: functional, tissue-based
Settings: tested as the 18F-labelled form
Entry rule: numbers only, all in %ID/g.

Here are 3 compounds together with their reported answers.
CN(C)Cc1ccccc1Sc1ccc(CCF)cc1N ... 0.31
CN(C)Cc1ccccc1Sc1ccc(CCCF)cc1N ... 0.84
CN(C)Cc1ccccc1Sc1ccc(CF)cc1N ... 0.36

Please give the measured Specific binding for this compound: CN(C)Cc1ccccc1Sc1ccc(F)cc1N
0.64
